Molecular target: Neuronal acetylcholine receptor subunit alpha-7 (Homo sapiens, UniProt P36544)
Sequence (P36544 whole entry): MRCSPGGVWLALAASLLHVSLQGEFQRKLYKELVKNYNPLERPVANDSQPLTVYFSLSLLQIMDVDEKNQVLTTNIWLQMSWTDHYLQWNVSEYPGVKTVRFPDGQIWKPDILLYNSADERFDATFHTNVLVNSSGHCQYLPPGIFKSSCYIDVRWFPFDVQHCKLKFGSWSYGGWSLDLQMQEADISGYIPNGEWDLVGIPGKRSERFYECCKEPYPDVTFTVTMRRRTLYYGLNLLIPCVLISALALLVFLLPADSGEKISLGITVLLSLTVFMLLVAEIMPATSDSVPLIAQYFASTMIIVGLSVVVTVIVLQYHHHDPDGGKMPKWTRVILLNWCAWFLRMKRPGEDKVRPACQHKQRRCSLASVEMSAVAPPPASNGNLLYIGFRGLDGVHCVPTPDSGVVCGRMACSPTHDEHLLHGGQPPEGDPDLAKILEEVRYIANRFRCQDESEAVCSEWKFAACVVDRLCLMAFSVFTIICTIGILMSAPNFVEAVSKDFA
Assay: Antagonist activity at human alpha7 nAChR expressed in Xenopus laevis oocytes assessed as inhibition of Ach-induced response by measuring residual activity at 10 uM at -70 mV holding potential measured after 5 mins by two electrode voltage-clamp electrophysiology method relative to control
Type: cell-based
Conditions: Oocyte, filed as antagonist
Peptide text beside a SMILES is read from it.
readout-name: Activity (%)
Your answer is read as %, so omit the unit and give the number.

1) C[C@H](NC(=O)[C@H](CCCNC(=N)N)NC(=O)[C@H](CCCNC(=N)N)NC(=O)[C@H](CCCNC(=N)N)NC(=O)[C@H](CO)NC(=O)[C@H](CS)NC(=O)[C@H](C)NC(=O)[C@@H]1CCCN1C(=O)[C@H](Cc1c[nH]cn1)NC(=O)[C@H](CO)NC(=O)[C@H](CS)NC(=O)[C@H](CS)NC(=O)CN)C(=O)N[C@@H](CCCNC(=N)N)C(=O)N[C@@H](CO)C(=O)N[C@@H](CS)C(=O)O (H-GCCSHPACSRRRARSC-OH)    1.4
2) C[C@H](NC(=O)[C@H](CCCNC(=N)N)NC(=O)[C@H](CCCNC(=N)N)NC(=O)[C@H](Cc1c[nH]cn1)NC(=O)[C@H](CO)NC(=O)[C@H](CCCCN)NC(=O)[C@H](CS)NC(=O)[C@H](C)NC(=O)[C@@H]1CCCN1C(=O)[C@H](Cc1c[nH]cn1)NC(=O)[C@H](CO)NC(=O)[C@H](CS)NC(=O)[C@H](CS)NC(=O)CN)C(=O)N[C@@H](CCCNC(=N)N)C(=O)N[C@@H](CS)C(=O)O (H-GCCSHPACKSHRRARC-OH)    13

Activity in this record for C[C@H](NC(=O)[C@H](CCCNC(=N)N)NC(=O)[C@H](CCCNC(=N)N)NC(=O)[C@H](Cc1c[nH]cn1)NC(=O)[C@H](CO)NC(=O)[C@H](CS)NC(=O)[C@H](C)NC(=O)[C@@H]1CCCN1C(=O)[C@H](Cc1c[nH]cn1)NC(=O)[C@H](CO)NC(=O)[C@H](CS)NC(=O)[C@H](CS)NC(=O)CN)C(=O)N[C@@H](CCCNC(=N)N)C(=O)N[C@@H](CO)C(=O)N[C@@H](CS)C(=O)O (H-GCCSHPACSHRRARSC-OH) : 46

The recorded Activity for C[C@H](NC(=O)[C@H](CCCNC(=N)N)NC(=O)[C@H](CCCNC(=N)N)NC(=O)[C@@H]1CCCN1C(=O)[C@H](CO)NC(=O)[C@H](CS)NC(=O)[C@H](C)NC(=O)[C@@H]1CCCN1C(=O)[C@H](Cc1c[nH]cn1)NC(=O)[C@H](CO)NC(=O)[C@H](CS)NC(=O)[C@H](CS)NC(=O)CN)C(=O)N[C@@H](CCCNC(=N)N)C(=O)N[C@@H](CO)C(=O)N[C@@H](CS)C(=O)O (H-GCCSHPACSPRRARSC-OH) is 16

Attribution: ChEMBL document CHEMBL5512684
